assay: melting temperature; fluorescence melt of hairpins on a sequencing array, two-state fit, raised by 9.35 °C to match UV melts; conditions: sodium 0.088 M
recordedEndpoint: Tm (°C)
Answers are plain numbers, in °C.

GGCATGGGAAACCATGTC (.(((((....))))).); 52.5
GCTTGAGGAAACTCAAGC (((((((....))))))); 62.8
GTGTGCGAAAGCAAGCAC ((((((....)))..))); 43.5
GGACGTCGAAAGACATCC (((.(((....))).))); 47.3
GATCACATCTGTGATC ((((((....)))))); 57.9
GCTGACGAAAGTCGAGC ((((((....))).))); 54.6
GCGATTCCGAAAGGACGC (((..(((....)))))); 46
GATAGAGGAAACTCTATC (((((((....))))))); 50.2

Quick batch: Tm for everything below.
1. GATCCCTAGAGGGATC ((((((....))))))
2. GACACGGGAAACCGCGTC (((.(((....))).)))
3. GCGAGATCTCGC ((((....))))
4. GATCCATTGCTGGATC ((((((....))))))

Outgoing:
1. 59
2. 50.9
3. 54.1
4. 50.8

Quick batch: Tm for everything below.
1. GAAGACGAAAGTCTTC ((((((....))))))
2. GTTTGTCGAAAGACAAC (((.(((....))))))
3. GATCCCCCGAAAGGGATC (((..(((....))))))
4. GTAGCCCCGAAAGGGTAC (((..(((....))))))
5. GATGAGGCGAAAGCCATC (((..(((....))))))
6. GTCACCGAAAGGTTTGAC ((((((....)))..)))
7. GGTTCACGAAAGTGCACC (((.(((....))).)))
8. GGAGCCGAAAGGCATTCC ((((((....)))..)))

Outgoing:
1: 64.5; 2: 47.5; 3: 52.4; 4: 39.1; 5: 36.3; 6: 37.4; 7: 50.5; 8: 33.1

Quick batch: Tm for everything below.
1. GCTCACGGAAACGCAAGC (((..((....))..)))
2. GGAAATCGAAAGATGTCC (((.(((....))).)))

Outgoing:
1: 26.8; 2: 40.9

* * *

assay: melting temperature; fluorescence melt of hairpins on a sequencing array, two-state fit, raised by 9.35 °C to match UV melts; conditions: sodium 0.088 M
Assign Tm to each entry below.
One number for each entry, in °C.

GTCGAACGAAAGTTGGAC (((.(((....))).))); 50.6
GATCGAACCATCGATC ((((((....)))))); 50.4

Let us move to another entry and its Tm.
Incoming: // lookup Tm for GGTTGGCGAAAGCCCACC (((.(((....))).)))
Outgoing: 51.4

* * *

Assign Tm to each entry below.
assay: melting temperature; fluorescence melt of hairpins on a sequencing array, two-state fit, raised by 9.35 °C to match UV melts; details: sodium 0.088 M

Examples with their reported Tm follow.
GATCATGTTTATGATC ((((((....)))))); 50 °C
GATCCAACTTGGATC ((((((...)))))); 51.2 °C

Let us move to another entry and its Tm.
Incoming: // lookup Tm for GGTACGGGAAACTGTACC (((((.(....).)))))
Outgoing: 50.9 °C

* * *

assay: folding enthalpy; higher = less favourable; fluorescence melt of hairpins on a sequencing array, two-state fit; conditions: sodium 0.088 M
Mark Y for reported folding enthalpy of -30 kcal/mol or greater; mark N for anything smaller.

These recorded examples may help you get a feel for the data.
GCCGCCGAAAGGCCAGGC ((((((....)))..))); Y
GGGCAGGGAAACCTGTCC ((.((((....)))).)); N
GATCTCGTAAGAGATC ((((((....)))))); N

Incoming: Is folding enthalpy at least -30 kcal/mol? Consider GGTCCTGGAAACAGGATC (.(((((....))))).)
Outgoing: N

* * *

Assign folding enthalpy to each entry below.
test: folding enthalpy; higher = less favourable; fluorescence melt of hairpins on a sequencing array, two-state fit; settings: sodium 0.088 M
Answers are plain numbers, in kcal/mol.

GATCTTTTGCAAGATC ((((((....)))))); -34.8
GAGTGGCGAAAGCCTCTC (((.(((....))).))); -24.2
GTACAACCGAAAGGTTAC (((..(((....)))))); -10.7
GATCAGGTTCTGATC ((((((...)))))); -34.1

Let us move to another entry and its folding enthalpy.
Incoming: // lookup folding enthalpy for GCAGGGCGAAAGCTCCGC ((.(.((....)).).))
Outgoing: -17.6

* * *

assay: melting temperature; fluorescence melt of hairpins on a sequencing array, two-state fit, raised by 9.35 °C to match UV melts; settings: sodium 0.088 M
Assign Tm to each entry below.
The answer consists of two parts: a number and, after it, its unit.

GGACGACGAAAGTCTTCC (((.(((....))).))); 48.9 °C
GAGCCCGAAAGGGGCCTC ((((((....)))..))); 49.9 °C

Let us move to another entry and its Tm.
Incoming: // lookup Tm for GATCGACAGTTCGATC ((((((....))))))
Outgoing: 49.2 °C

* * *

experiment: melting temperature; fluorescence melt of hairpins on a sequencing array, two-state fit, raised by 9.35 °C to match UV melts; details: sodium 0.088 M
Assign Tm to each entry below.
One number for each entry, in °C.

GACTCGGGAAACCGGGTC (((.(((....))).))); 55.1

Quick batch: Tm for everything below.
1. GGTTGCCGAAAGGCACC (((.(((....))))))
2. TTGGGGAAACCCAA (((((....)))))
3. GGATATGCGAAAGCATCC (((..(((....))))))
4. GATCCAGACTTGGATC ((((((....))))))
5. GCACTTCCGAAAGGATGC (((..(((....))))))

Outgoing:
59
43.4
36.5
56.1
37.9

Quick batch: Tm for everything below.
1. GATCGTTTAAACGATC ((((((....))))))
2. GGTCATGGAAACGTGACC (((((.(....).)))))

Outgoing:
[56.1, 53.6]

* * *

assay: melting temperature; fluorescence melt of hairpins on a sequencing array, two-state fit, raised by 9.35 °C to match UV melts; details: sodium 0.088 M
Each record is given Y if its reported Tm is strictly below 50 °C. Records at or above 50 °C are given N.

GCACCGCGAAAGCCGAGC ((.(.((....)).).)); Y
GAGTGAGGAAACTCATTC ((.((((....)))).)); Y
GATCAACTTATTGATC ((((((....)))))); Y
GCTCATCCGAAAGGAAGC (((..(((....)))))); Y
GTCTACGGAAACGCAGAC ((((.((....)).)))); Y
GCTACGCGAAAGCATCGC ((.(.((....)).).)); Y
GGCTAGCGAAAGCTCGCC (((.(((....))).))); N
GATCTCGCATGAGATC ((((((....)))))); N

Incoming: Confirm or reject: Tm of CGCGGAAAACTCCGCG ((((((....)))))) lies strictly below 50 °C
Outgoing: N

Incoming: Proceed to GATAGCACGAAAGTGATC (((..(((....))))))
Outgoing: Y

Incoming: Proceed to CGTGCGGAAACGCCGACG ((((((....)))..)))
Outgoing: Y

Incoming: Proceed to CCCCAGAAATGGGG (((((....)))))
Outgoing: N

Incoming: Proceed to CGATGCGGAAACGCTTCG (((.(((....))).)))
Outgoing: N

* * *

test: melting temperature; fluorescence melt of hairpins on a sequencing array, two-state fit, raised by 9.35 °C to match UV melts; conditions: sodium 0.088 M
recordedEndpoint: Tm
The answer consists of two parts: a number and, after it, its unit.

Examples with their reported Tm follow.
GTGCTCGGAAACAAGCAC (((((.(....).))))); 46.2 °C
GGTTCAGGAAACTGGACC (((.(((....))).))); 50.7 °C
CGCTTACGGAAACGTGCG (((..(((....)))))); 42.7 °C
GCGTTCGGACGC ((((....)))); 53.5 °C
GACAAGAAATTGTC (((((....))))); 37.2 °C

Quick batch: Tm for everything below.
1. GTCGAGGCGAAAGCCGAC (((..(((....))))))
2. GCGACGGGAAACCACCGC (((..((....))..)))
3. GTGCTCGAAAGAGCTCAC ((((((....)))..)))
4. GATCCTACGTAGGATC ((((((....))))))
5. GGAATGGAAACATTCC ((((((....))))))
6. GAGTCACGAAAGTGTCTC (((.(((....))).)))
7. GATCCACCATGGATC ((((((...))))))

Outgoing:
1: 51 °C; 2: 40.2 °C; 3: 42.8 °C; 4: 53.3 °C; 5: 53.1 °C; 6: 49.8 °C; 7: 49.7 °C
